# System: α-glucosidase
# assay-info: in vitro α-glucosidase inhibitory activity
# Type: biochemical, Homo sapiens
# measurement-context: 31.25 µM
Below is a list of entries, each paired with its recorded % α-Glucosidase Inhibition value.
Write down the numeric answer in % and omit the unit.

>>> numeric_result("COc1ccc(N2C(=O)C[C@@H](C(C)(C)/C=C3\\SC(=O)N(C(=O)CN4CCOCC4)C3=O)C2=O)cc1 [10e]")
52.58
>>> numeric_result("CC(C)(/C=C1\\SC(=O)N(C(=O)CN2CCOCC2)C1=O)[C@@H]1CC(=O)NC1=O [10a]")
54.56
>>> numeric_result("CC(C)(/C=C1\\SC(=O)N(C(=O)CN2CCOCC2)C1=O)[C@@H]1CC(=O)N(c2ccccc2)C1=O [10c]")
62.72
>>> numeric_result("C[C@H]1O[C@H](O[C@H]2[C@H](O)[C@@H](O)[C@@H](O[C@H]3[C@H](O)[C@@H](O)C(O)O[C@@H]3CO)O[C@@H]2CO)[C@H](O)[C@@H](O)[C@@H]1N[C@H]1C=C(CO)[C@@H](O)[C@H](O)[C@H]1O (stereo partly drawn) [Acarbose, acarbose, reference compound]")
71.22
>>> numeric_result("CC(C)(C=C1SC(=O)N(C(=O)CN2CCOCC2)C1=O)C1CC(=O)N(Cc2ccccc2)C1=O (stereo not drawn) [10d]")
67.10

Okay, now this molecule:
*Q* Look at this molecule and give its reported % α-Glucosidase Inhibition. CN1C(=O)C[C@@H](C(C)(C)/C=C2\SC(=O)N(C(=O)CN3CCOCC3)C2=O)C1=O [10b]
*A* 51.72

---

Below is a list of entries, each paired with its recorded inhibition at 250 µM value.
# target-or-test-system: PTP1B (Homo sapiens)
# assay-info: PTP1B assay (pNPP substrate)
# Type: biochemical
# measurement-context: 250 µM

# count of solved cases: 4
>>> result("CC(C)(C=C1SC(=O)N(C(=O)CN2CCOCC2)C1=O)C1CC(=O)N(Cc2ccccc2)C1=O (stereo not drawn) [10d]")
"84.5%"
>>> result("C[C@H]1[C@H](C)CC[C@]2(C(=O)O)CC[C@]3(C)C(=CC[C@@H]4[C@@]5(C)CC[C@H](O)C(C)(C)[C@@H]5CC[C@]43C)[C@H]12 [Ursolic acid, ursolic acid, reference compound]")
"87.5%"
>>> result("CC(C)(/C=C1\\SC(=O)N(C(=O)CN2CCOCC2)C1=O)[C@@H]1CC(=O)N(c2ccccc2)C1=O [10c]")
"73.4%"
>>> result("CC(C)(/C=C1\\SC(=O)N(C(=O)CN2CCOCC2)C1=O)[C@@H]1CC(=O)NC1=O [10a]")
"82.6%"

*Q* Look at this compound and give its reported inhibition at 250 µM. CN1C(=O)C[C@@H](C(C)(C)/C=C2\SC(=O)N(C(=O)CN3CCOCC3)C2=O)C1=O [10b]
*A* 77.1%

*Q* Look at this compound and give its reported inhibition at 250 µM. COc1ccc(N2C(=O)C[C@@H](C(C)(C)/C=C3\SC(=O)N(C(=O)CN4CCOCC4)C3=O)C2=O)cc1 [10e]
*A* 75.8%

---

# target-or-test-system: α-amylase (Homo sapiens, UniProt P04746)
# Sequence (P04746 16-511): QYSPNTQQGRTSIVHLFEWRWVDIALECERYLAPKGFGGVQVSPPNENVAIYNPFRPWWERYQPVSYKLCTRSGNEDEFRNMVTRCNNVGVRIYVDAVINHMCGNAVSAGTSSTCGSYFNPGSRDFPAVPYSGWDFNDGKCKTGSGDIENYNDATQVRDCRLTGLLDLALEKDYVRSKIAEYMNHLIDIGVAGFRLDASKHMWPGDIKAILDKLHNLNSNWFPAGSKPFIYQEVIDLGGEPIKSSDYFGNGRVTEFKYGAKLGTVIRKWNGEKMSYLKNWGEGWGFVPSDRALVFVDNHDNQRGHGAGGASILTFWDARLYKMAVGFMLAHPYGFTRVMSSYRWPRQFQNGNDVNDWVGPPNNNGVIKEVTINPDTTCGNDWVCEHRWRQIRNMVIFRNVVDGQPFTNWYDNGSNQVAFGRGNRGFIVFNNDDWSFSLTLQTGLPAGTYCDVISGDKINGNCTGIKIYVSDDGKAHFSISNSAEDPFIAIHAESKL
# assay-info: in vitro α-amylase inhibitory activity
# Type: biochemical
# measurement-context: 62.5 µM; read-out: % α-Amylase Inhibition (converted)
Below is a list of entries, each paired with its recorded inhibition at 62.5 µM value.
Write down the numeric answer in % and omit the unit.

# count of solved cases: 4
>>> numeric_result("CN1C(=O)C[C@@H](C(C)(C)/C=C2\\SC(=O)N(C(=O)CN3CCOCC3)C2=O)C1=O [10b]")
65.5
>>> numeric_result("CC(C)(/C=C1\\SC(=O)N(C(=O)CN2CCOCC2)C1=O)[C@@H]1CC(=O)N(c2ccccc2)C1=O [10c]")
67.6
>>> numeric_result("COc1ccc(N2C(=O)C[C@@H](C(C)(C)/C=C3\\SC(=O)N(C(=O)CN4CCOCC4)C3=O)C2=O)cc1 [10e]")
78.2
>>> numeric_result("CC(C)(C=C1SC(=O)N(C(=O)CN2CCOCC2)C1=O)C1CC(=O)N(Cc2ccccc2)C1=O (centres unmarked) [10d]")
70

*Q* What value of inhibition at 62.5 µM on α-amylase (Homo sapiens, UniProt P04746) does CC(C)(/C=C1\SC(=O)N(C(=O)CN2CCOCC2)C1=O)[C@@H]1CC(=O)NC1=O [10a] have?
*A* 57.5

---

The listing below reports pIC50 for compounds tested on UniProt:P27487.
# pIC50 is unitless: minus log10 of the molar concentration; print number only

>>> numeric_result("CC(C)(/C=C1\\SC(=O)N(C(=O)CN2CCOCC2)C1=O)[C@@H]1CC(=O)N(c2ccccc2)C1=O [10c]")
4.89

*Q* What value of pIC50 on UniProt:P27487 does CC(C)(/C=C1\SC(=O)N(C(=O)CN2CCOCC2)C1=O)[C@@H]1CC(=O)NC1=O [10a] have?
*A* 5.27

*Q* What value of pIC50 on UniProt:P27487 does CN1C(=O)C[C@@H](C(C)(C)/C=C2\SC(=O)N(C(=O)CN3CCOCC3)C2=O)C1=O [10b] have?
*A* 4.69

*Q* What value of pIC50 on UniProt:P27487 does CC(C)(C=C1SC(=O)N(C(=O)CN2CCOCC2)C1=O)C1CC(=O)N(Cc2ccccc2)C1=O (centres unmarked) [10d] have?
*A* 5.37

*Q* What value of pIC50 on UniProt:P27487 does COc1ccc(N2C(=O)C[C@@H](C(C)(C)/C=C3\SC(=O)N(C(=O)CN4CCOCC4)C3=O)C2=O)cc1 [10e] have?
*A* 4.83

---

# target-or-test-system: human DPP-4 enzyme (Homo sapiens)
# Construct: purchased
# Sequence (P27487 whole entry): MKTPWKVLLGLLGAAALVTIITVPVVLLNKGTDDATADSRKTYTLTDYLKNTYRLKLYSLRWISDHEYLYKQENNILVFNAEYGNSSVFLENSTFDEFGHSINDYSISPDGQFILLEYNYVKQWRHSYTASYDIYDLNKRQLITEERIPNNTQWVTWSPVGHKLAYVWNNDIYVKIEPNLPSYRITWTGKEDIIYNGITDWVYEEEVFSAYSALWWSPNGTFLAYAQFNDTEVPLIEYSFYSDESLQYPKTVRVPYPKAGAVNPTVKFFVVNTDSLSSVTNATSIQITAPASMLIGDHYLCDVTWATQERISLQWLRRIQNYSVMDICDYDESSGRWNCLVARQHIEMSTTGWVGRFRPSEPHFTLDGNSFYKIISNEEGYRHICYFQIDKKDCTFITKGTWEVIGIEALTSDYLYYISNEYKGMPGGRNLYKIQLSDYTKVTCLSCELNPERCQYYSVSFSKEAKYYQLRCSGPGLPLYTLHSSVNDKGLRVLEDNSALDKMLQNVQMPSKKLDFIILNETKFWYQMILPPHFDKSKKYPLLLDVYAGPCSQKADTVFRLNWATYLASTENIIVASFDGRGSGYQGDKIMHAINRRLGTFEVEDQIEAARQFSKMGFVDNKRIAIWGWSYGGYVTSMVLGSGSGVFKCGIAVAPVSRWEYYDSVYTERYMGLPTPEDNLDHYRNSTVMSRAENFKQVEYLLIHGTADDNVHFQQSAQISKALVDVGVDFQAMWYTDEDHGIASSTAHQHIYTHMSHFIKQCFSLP
# assay-info: DPP-4 activity bioassay
# Assay type: biochemical
# measurement-context: 31.25 µM; read-out: DPP4 (inhibition) (converted)
measure-name: inhibition at 31.25 µM (%)
Write down the numeric answer in % and omit the unit.

# count of solved cases: 4
>>> numeric_result("COc1ccc(N2C(=O)C[C@@H](C(C)(C)/C=C3\\SC(=O)N(C(=O)CN4CCOCC4)C3=O)C2=O)cc1 [10e]")
61.3
>>> numeric_result("CC(C)(/C=C1\\SC(=O)N(C(=O)CN2CCOCC2)C1=O)[C@@H]1CC(=O)NC1=O [10a]")
67.5
>>> numeric_result("CC(C)(C=C1SC(=O)N(C(=O)CN2CCOCC2)C1=O)C1CC(=O)N(Cc2ccccc2)C1=O (centres unmarked) [10d]")
71.4
>>> numeric_result("CN1C(=O)C[C@@H](C(C)(C)/C=C2\\SC(=O)N(C(=O)CN3CCOCC3)C2=O)C1=O [10b]")
54.3

*Q* Look at this compound and give its reported inhibition at 31.25 µM. CC(C)(/C=C1\SC(=O)N(C(=O)CN2CCOCC2)C1=O)[C@@H]1CC(=O)N(c2ccccc2)C1=O [10c]
*A* 57.4

---

# target-or-test-system: PTP1B (Homo sapiens)
# Sequence (P18031 1-435): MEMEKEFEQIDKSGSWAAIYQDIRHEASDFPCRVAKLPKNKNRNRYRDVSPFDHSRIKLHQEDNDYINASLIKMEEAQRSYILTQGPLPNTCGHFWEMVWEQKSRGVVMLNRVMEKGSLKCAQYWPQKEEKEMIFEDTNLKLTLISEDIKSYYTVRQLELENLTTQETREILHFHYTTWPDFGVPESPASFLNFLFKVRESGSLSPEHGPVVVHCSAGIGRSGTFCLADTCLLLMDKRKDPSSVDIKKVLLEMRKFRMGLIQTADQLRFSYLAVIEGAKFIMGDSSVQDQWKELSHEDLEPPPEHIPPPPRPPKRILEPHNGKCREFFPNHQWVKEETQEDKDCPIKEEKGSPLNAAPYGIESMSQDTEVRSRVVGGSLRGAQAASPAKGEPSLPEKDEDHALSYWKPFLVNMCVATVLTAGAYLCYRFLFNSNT
measure-name: IC50 (µM)
Write down the numeric answer in µM and omit the unit.

# count of solved cases: 4
>>> numeric_result("CN1C(=O)C[C@@H](C(C)(C)/C=C2\\SC(=O)N(C(=O)CN3CCOCC3)C2=O)C1=O [10b]")
16.8
>>> numeric_result("COc1ccc(N2C(=O)C[C@@H](C(C)(C)/C=C3\\SC(=O)N(C(=O)CN4CCOCC4)C3=O)C2=O)cc1 [10e]")
19.5
>>> numeric_result("CC(C)(C=C1SC(=O)N(C(=O)CN2CCOCC2)C1=O)C1CC(=O)N(Cc2ccccc2)C1=O (centres unmarked) [10d]")
3.64
>>> numeric_result("CC(C)(/C=C1\\SC(=O)N(C(=O)CN2CCOCC2)C1=O)[C@@H]1CC(=O)NC1=O [10a]")
12

Okay, now this molecule:
*Q* What value of IC50 on PTP1B (Homo sapiens) does CC(C)(/C=C1\SC(=O)N(C(=O)CN2CCOCC2)C1=O)[C@@H]1CC(=O)N(c2ccccc2)C1=O [10c] have?
*A* 19
